- SUBJECT_OF_TEST: T1, recombinant human CD30 extra cellular domain (ECD) protein (human, UniProt P28908 19-379)
- T1 construct: Bought from R&D systems; also called rhCD30; human CD30 ECD
- T1 sequence: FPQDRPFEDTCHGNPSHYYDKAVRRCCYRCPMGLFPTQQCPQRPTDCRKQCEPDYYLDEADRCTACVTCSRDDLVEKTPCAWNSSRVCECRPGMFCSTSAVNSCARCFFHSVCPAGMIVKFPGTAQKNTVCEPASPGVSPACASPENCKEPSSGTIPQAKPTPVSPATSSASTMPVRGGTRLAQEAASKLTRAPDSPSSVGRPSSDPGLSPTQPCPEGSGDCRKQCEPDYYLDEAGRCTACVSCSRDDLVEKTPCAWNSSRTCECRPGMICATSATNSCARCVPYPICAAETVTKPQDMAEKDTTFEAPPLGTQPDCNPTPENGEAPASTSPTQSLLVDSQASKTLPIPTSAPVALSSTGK
- PROTOCOL: SPR Biacore T200, His-tagged sdAb/Fab captured, 100.0 nM human CD30 as analyte, single curve
Here the recorded rhCD30 Binding (RU) is given for each entry.

AS48433 sdAb (VHH, Camel sdAb) VHH: QIQLVESGGGSVQAGETLRLSCTASGSTFGDSDMGWYRQAPGNACELVSIISSDGRTYYVDSVKGRFTISQDNAVSTVYLQMNSLNPEDTGVYYCAADLRLNCRDGRCCGYWGQGTQVTVSS	83.5 RU
AS53445 sdAb (VHH, Camel sdAb) VHH: QVQLVESGGGSVQAGGSLRLSCTASGYIFCMGWFRQAPGKAREGIATIYTGGDSTYYDDSVKGRFTISRDNAKNTVYLQMNSLKPEDTAMYYCAAGGQECYLTNWVSYWGQGTQVTVSS	101 RU
AS57659 human Fab (Fab, V domains shown, Human Fab from a synthetic human Fab library, crude protein from E. coli with 6xHistidine tag) VH: EVQLVESGGGLVQPGGSLRLSCAASGFNIYSYYIHWVRQAPGKGLEWVASIYSSYSSTYYADSVKGRFTISADTSKNTAYLQMNSLRAEDTAVYYCARSWFSYPGLDYWGQGTLVTVSS VL: DIQMTQSPSSLSASVGDRVTITCRASQSVSSAVAWYQQKPGKAPKLLIYSASSLYSGVPSRFSGSRSGTDFTLTISSLQPEDFATYYCQQPYYLITFGQGTKVEIK	83.6 RU

API: the following record is the query input.
Which measured rhCD30 Binding (RU) value corresponds to AS53574 sdAb (VHH, Camel sdAb) VHH: QVKLVESGGGSVQAGGSLRLSCAASGYIYSSNCMGWFRQAPGKEREWVARIHTGSGSTYYADSVKGRFTISQDNAKNTVYLQMNSLRPEDTAMYDCAAGRVVLGAVVCTNEYWGQGTQVTVSS ?
569 RU
